Where these numbers come from: paper PMC7669867

Attribute: remaining at 0.5 h
test: in vitro; format: in vitro ADME, rat; conditions: rat, plasma
The reply should be a number in %, with the unit left off.

COMPOUND	OUTPUT_UNIT	MEASURED_RESULT
FC(F)(F)c1ccc(Sc2nc3ccccc3s2)cc1 [Compound 10]	%	93.8

response.value for CCOC(=O)[C@H](CCc1ccccc1)N[C@@H](C)C(=O)N1CCC[C@H]1C(=O)O [Enalapril] (field: remaining at 0.5 h) = 37.7

response.value for CCN(CC)CCOC(=O)c1ccc(N)cc1 [Procaine] (field: remaining at 0.5 h) = 89.8

----------
test: in vitro; assay type: in vitro ADME, human; settings: human, plasma
METRIC: remaining at 0.5 h (%)
The reply should be a number in %, with the unit left off.

1) FC(F)(F)c1ccc(Sc2nc3ccccc3s2)cc1 98.1

Now for the compound whose remaining at 0.5 h we want.
response.value for CCOC(=O)[C@H](CCc1ccccc1)N[C@@H](C)C(=O)N1CCC[C@H]1C(=O)O (field: remaining at 0.5 h) = 95

----------
assay: in vitro; assay type: in vitro ADME, rat; settings: rat, plasma
METRIC: remaining at 2 h (%)
The reply should be a number in %, with the unit left off.

Before answering, review these 2 worked examples.
COMPOUND	OUTPUT_UNIT	remaining at 2 h
FC(F)(F)c1ccc(Sc2nc3ccccc3s2)cc1 [Compound 10]	%	87.5
CCN(CC)CCOC(=O)c1ccc(N)cc1 [Procaine]	%	52.6

Now for the compound whose remaining at 2 h we want.
response.value for CCOC(=O)[C@H](CCc1ccccc1)N[C@@H](C)C(=O)N1CCC[C@H]1C(=O)O [Enalapril] (field: remaining at 2 h) = 1.8

----------
Test system: human pancreatic cancer PANC-1 cells
Assay: Cell viability MTT assay, PANC-1
Type: cell-based
Details: Homo sapiens, PANC-1; MTT, 48 h; read-out: PANC-1 (GI50)
Experimental: The human pancreatic cancer cell lines, PANC-1 and MiaPaCa-2, human lung cancer A549 cells, human breast cancer MCF-7, and human glioma U87 cells were obtained from the Korean cell line bank (Seoul, Korea). […] The potential cytotoxicity of compounds at different concentrations was evaluated using the MTT assay. […] Then, the conditioned media were aspirated, and the formed formazan crystals in living cells were quantified using the microplate reader (Spectramax M2) at 540 nm. […]
Attribute: GI50
The reply should be a number in µM, with the unit left off.

Before answering, review these 2 worked examples.
1. Nc1cccc(C(=O)OCc2ccc3c(c2)OCO3)c1 203
2. O=C(OCc1ccc2c(c1)OCO2)c1ccc(F)cc1 644

response.value for FC(F)(F)c1ccc(Sc2nc3ccccc3s2)cc1 (field: GI50) = 12.2

----------
target: purified recombinant human LDHA protein (Homo sapiens); construct: purchased Abcam; experiment: In vitro LDHA inhibitor activity (NADH fluorescence decrease); assay type: biochemical; details: synthesized compounds; read-out: LDHA IC50
METRIC: log10 IC50 (log10 of the value in µM)
The figures below represent log10 of IC50, where IC50 is stated in µM.

response.value for O=C(OCc1ccc2c(c1)OCO2)c1ccccc1 (field: log10 IC50) = 2.93

----------
biological target: purified recombinant human LDHB protein (Homo sapiens, UniProt P07195); construct: purchased Abcam; test: In vitro LDHB activity assay (NAD+ converted to NADH); assay type: biochemical; conditions: synthesized compounds; read-out: LDHB IC50
Sequence (P07195 whole entry): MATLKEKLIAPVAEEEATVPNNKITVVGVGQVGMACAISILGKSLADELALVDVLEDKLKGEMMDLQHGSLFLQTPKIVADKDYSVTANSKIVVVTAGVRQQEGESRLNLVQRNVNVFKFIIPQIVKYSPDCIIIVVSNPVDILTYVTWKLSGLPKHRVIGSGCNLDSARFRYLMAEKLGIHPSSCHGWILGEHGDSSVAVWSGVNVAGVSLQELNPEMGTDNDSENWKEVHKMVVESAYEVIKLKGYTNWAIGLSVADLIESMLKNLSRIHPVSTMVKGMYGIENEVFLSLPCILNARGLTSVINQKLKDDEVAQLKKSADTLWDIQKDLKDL
METRIC: pIC50
Scale: pIC50 equals -log10([C]), with [C] in mol/L.

Before answering, review these 5 worked examples.
1) Nc1cccc(C(=O)OCc2ccc3c(c2)OCO3)c1 5.10
2) O=C(OCc1ccc2c(c1)OCO2)c1ccc(I)cc1 3.82
3) Cc1ccc(C(=O)OCc2ccc3c(c2)OCO3)cc1 3.61
4) O=C(OCc1ccc2c(c1)OCO2)c1ccc(C(F)(F)F)cc1 3.40
5) O=C(CC(F)(F)F)OCc1ccc2c(c1)OCO2 3.89

response.value for O=C(OCc1ccc2c(c1)OCO2)c1ccc(Br)cc1 (field: pIC50) = 4.10
